measured.on: human ErbB3 (human, UniProt P21860 20-1342)
assay.remarks: cell-based or functional assay
parameter: IC50, NRG1-β1 dependent proliferation of MCF7 cells (MTT) (nM)
Your answer should be a plain number; it is taken to be in nM.

The binder listed as 11G01 (antibody, mouse IgG1, kappa, V domains shown, Murine IgG1/kappa, from hybridoma; also called anti-hErbB3 monoclonal antibody 11G01) VH: QVQLQQSDAELVKPGASVKISCKVSGYTFTDHIIHWMKQRPEQGLEWIGYIYPRDGYIKYNEKFKGKATLTADKSSSTAYMQVNSLTSEDSAVYFCARGYYYAMDYWGQGTSVTVSS VL: DVLMTQTPLSLPVSLGDQASISCRSSQSIVHSIGNTYLEWYLQKPGQSPKLLIYKVSNRFSGVPERFSGSGSGTDFTLKISRVEAEDLGVYYCFQGSHVPFTFGSGTKLEIKR shows IC50, NRG1-β1 dependent proliferation of MCF7 cells (MTT) equal to 1.98

The binder listed as 18H02 (antibody, mouse IgG1, kappa, V domains shown, Murine IgG1/kappa, from hybridoma; also called anti-hErbB3 monoclonal antibody 18H02) VH: QIQLVQSGPELKKPGEAVKISCKSSGYTFTTYGMSWVKQAPGRALKWMGWINTYSGVPTYADDFKGRFAFSLESSASTAYLQINNLKNEDTATYFCARGRDGYQVAWFAYWGQGTLVTVSA VL: ETTVTQSPASLSMAIGDKVTIRCITSTDIDDDMNWFQQKPGEPPKLLISEGNTLRPGVPSRFSGSGYGTDFIFTIENMLSEDVADYYCLQSDNLPYTFGGGTKLEIKR shows IC50, NRG1-β1 dependent proliferation of MCF7 cells (MTT) equal to 1
